Measured values drawn from PubChem BioAssay AID1259407 for this set.

# Test system: CCRIS mutagenicity, Ames/micronucleus/aberration tests
# assay method text: CCRIS mutagenicity studies
# test settings: Test System: AMES SALMONELLA TYPHIMURIUM; Strain/Indicator: TA98; Metabolic Activation: RAT, LIVER, S-9; Method: STANDARD PLATE
The source made the active and inactive calls. How the calls were made is not given here.
Field 'call' accepts active, inactive

Input line: Could you please tell me the result logged for C[C@]12C=CC3=C4CCC(=O)C=C4CC[C@H]3[C@@H]1CC[C@@H]2O in this assay?
Output line: inactive

Input line: Could you please tell me the result logged for CCC(C)OS(C)(=O)=O (stereo not given) in this assay?
Output line: active

Input line: Could you please tell me the result logged for O=C(O)CN(CC(=O)O)CC(=O)O in this assay?
Output line: inactive

Input line: Could you please tell me the result logged for CCOP(=O)(OCC)Oc1nc(Cl)c(Cl)cc1Cl in this assay?
Output line: inactive

Input line: Could you please tell me the result logged for CCOP(=O)(OCC)Oc1ccc([N+](=O)[O-])cc1 in this assay?
Output line: active
